assay.summary: folding enthalpy; higher = less favourable; fluorescence melt of hairpins on a sequencing array, two-state fit
assay.context: sodium 0.088 M
Each entry belongs to exactly one class, chosen by where its folding enthalpy falls: low range = under -40 kcal/mol, mid range = from -40 kcal/mol up to -20 kcal/mol, high range = -20 kcal/mol and over

GATCGTATCGACGATC ((((((....)))))) ... mid range

Task: Which of the defined bands does the recorded folding enthalpy of GTCGTGCCGAAAGGCGAC (((..(((....)))))) sit within?
Result: high range

Task: Repeat with GATCTTAGACAAGATC ((((((....))))))
Result: mid range

Task: Repeat with GATCAACGGTTTGATC ((((((....))))))
Result: mid range

---

assay.summary: melting temperature; fluorescence melt of hairpins on a sequencing array, two-state fit, raised by 9.35 °C to match UV melts
assay.context: sodium 0.088 M
The reader will find reported Tm values listed item by item below.
Enter your answer as a number in °C; do not include the unit.

GATCGGAGAGCCGATC ((((((....)))))) ... 54.8
CGAGCGCGGAAACGCTCG (((..(((....)))))) ... 68.5

Task: Please look up its Tm: GATCGTCGTAACGATC ((((((....))))))
Result: 57.1

Task: Repeat with GATCTGCGGGCAGATC ((((((....))))))
Result: 60.7

Task: Repeat with GCTCTTGCGAAAGCAAGC (((..(((....))))))
Result: 36.2

Task: Repeat with GCGAGACTTCGC ((((....))))
Result: 56.6

Task: Repeat with GATCGGTTGGCCGATC ((((((....))))))
Result: 60.9

Task: Repeat with GATTCTGGAAACAGAATC (((((((....)))))))
Result: 55

Task: Repeat with GAGGTTGGAAACGATCTC (((.(.(....).).)))
Result: 29.5

Task: Repeat with GATCTGGGAAACTGGATC ((((..(....)..))))
Result: 35.2

Task: Repeat with GTTAAGGCGAAAGCCAAC (((..(((....))))))
Result: 32.8

---

The reader will find reported folding enthalpy values listed item by item below.
assay.summary: folding enthalpy; higher = less favourable; fluorescence melt of hairpins on a sequencing array, two-state fit
assay.context: sodium 0.088 M
Enter your answer as a number in kcal/mol; do not include the unit.

GTCTGGACGAAAGTCGAC (((..(((....)))))) ... -17.6
GATCTATAAATAGATC ((((((....)))))) ... -35.4
GACGTCGGAAACGACACC (..((((....))))..) ... -10.5

Task: Please look up its folding enthalpy: GCCCTGCGAAAGCCGAGC ((.(.((....)).).))
Result: -11

Task: Repeat with GCCTAGCGAAAGCTCAGC ((..(((....)))..))
Result: -14.6

Task: Repeat with GCGGACGAAAGTCCACGC ((((((....)))..)))
Result: -15.2

Task: Repeat with GACCCCGAAAGGGAAGTC ((((((....)))..)))
Result: -16.1

---

The reader will find reported Tm values listed item by item below.
assay.summary: melting temperature; fluorescence melt of hairpins on a sequencing array, two-state fit, raised by 9.35 °C to match UV melts
assay.context: sodium 0.088 M
Form field: result (number plus unit)

Below are worked cases with known answers.
GCGACCATCGC ((((...)))) ... 46.4 °C
GGGTCACGAAAGTGTCCC (((.(((....))).))) ... 59.6 °C
GCAGGGAAACCTGC (((((....))))) ... 62.7 °C
GACACGGGAAACCGTGCC (.(((((....))))).) ... 48.4 °C
GATCCCACGGGGATC ((((((...)))))) ... 65.6 °C

Task: Please look up its Tm: GATCCTTCGAAGGATC ((((((....))))))
Result: 54.1 °C

Task: Repeat with GATGGCGAAAGCCGATC ((((((....))).)))
Result: 47.6 °C

Task: Repeat with GAGAAGCGAAAGCTCTC (((.(((....))))))
Result: 50.2 °C

Task: Repeat with GTAACAGGAAACCGTTAC (((((.(....).)))))
Result: 37.5 °C

---

The reader will find reported folding enthalpy values listed item by item below.
assay.summary: folding enthalpy; higher = less favourable; fluorescence melt of hairpins on a sequencing array, two-state fit
assay.context: sodium 0.088 M
Enter your answer as a number in kcal/mol; do not include the unit.

Below are worked cases with known answers.
GTGAATCGAAAGATACAC (((.(((....))).))) ... -27.9
GCGAGCAGTCGC ((((....)))) ... -26.2
GTGAGGGGAAACCCCCAC (((.(((....))).))) ... -31.5
GCAGCAGCGAAAGCTTGC (((..(((....)))))) ... -13.6
GCGAACGGAAACACTCGC ((((..(....)..)))) ... -21.9

Task: Please look up its folding enthalpy: GTCCGGACGAAAGTCGAC (((..(((....))))))
Result: -14

Task: Repeat with GATCTCATAAGAGATC ((((((....))))))
Result: -38.7

Task: Repeat with GACGAGCGAAAGCTGTC (((.(((....))))))
Result: -32.3

Task: Repeat with GCGGTAGGAAACCACCGC (((((.(....).)))))
Result: -36.8

Task: Repeat with GGCAAGCGAAAGCTCGCC (((.(((....))).)))
Result: -22.9

Task: Repeat with GTGACAGAAATGTCAC ((((((....))))))
Result: -35.7

Task: Repeat with GAGTGCGAAAGCAAGCTC ((((((....)))..)))
Result: -14.2

---

The reader will find reported Tm values listed item by item below.
assay.summary: melting temperature; fluorescence melt of hairpins on a sequencing array, two-state fit, raised by 9.35 °C to match UV melts
assay.context: sodium 0.088 M
Enter your answer as a number in °C; do not include the unit.

Below are worked cases with known answers.
GGCGGAGGAAACTTCGCC ((((.((....)).)))) ... 59
GGTAACGAAAGTTGCACC ((((((....)))..))) ... 35.1
GACACAACGAAAGTTGTC (((..(((....)))))) ... 38.7
GGAAGAACGAAAGTTTCC (((..(((....)))))) ... 33

Task: Please look up its Tm: GCGTAGCGAAAGCTTCGC (((.(((....))).)))
Result: 55

Task: Repeat with GCGTCGGGAAACTGACGC (((((.(....).)))))
Result: 65.3

Task: Repeat with GTTGCGGGAAACCGCGAC ((.((((....)))).))
Result: 60.7

---

The reader will find reported Tm values listed item by item below.
assay.summary: melting temperature; fluorescence melt of hairpins on a sequencing array, two-state fit, raised by 9.35 °C to match UV melts
assay.context: sodium 0.088 M
Enter your answer as a number in °C; do not include the unit.

Below are worked cases with known answers.
GACTCCGGAAACGAAGTC ((((.((....)).)))) ... 37.1
GATCGGGCCGCCGATC ((((((....)))))) ... 59.1

Task: Please look up its Tm: GATCACTGCGTGATC ((((((...))))))
Result: 61

Task: Repeat with CGAATCCGGAAACGGTCG (((..(((....))))))
Result: 33.6

Task: Repeat with GGTGGCGGAAACACCACC (((((.(....).)))))
Result: 53.8

Task: Repeat with GAGGGGCCGAAAGGCCTC (((..(((....))))))
Result: 46.4

Task: Repeat with GATATTGCGAAAGCAATC (((..(((....))))))
Result: 35.4

Task: Repeat with GATCATTGAGATGATC ((((((....))))))
Result: 49.8

Task: Repeat with GGTTTCGAAAGAACTACC ((((((....)))..)))
Result: 29.4

---

The reader will find reported Tm values listed item by item below.
assay.summary: melting temperature; fluorescence melt of hairpins on a sequencing array, two-state fit, raised by 9.35 °C to match UV melts
assay.context: sodium 0.088 M
Enter your answer as a number in °C; do not include the unit.

Below are worked cases with known answers.
GGTACACCGAAAGGTACC (((..(((....)))))) ... 41.1
GCTTACGAAAGTATAGC ((((((....))).))) ... 44.6
GTCAGCGGAAACGCCGAC (((.(((....))).))) ... 49.2
GCGGCCGCCGC ((((...)))) ... 55.1
GATCCTACGAGGATC ((((((...)))))) ... 53.4
GGGGTTGGAAACGATCCC (((.(.(....).).))) ... 39.1
GAGCCCGAAAGGGTCTC ((((((....))).))) ... 59

With those in mind, consider the next sequence.
Task: Please look up its Tm: CAGTAGAAATACTG (((((....)))))
Result: 38.6
